// reported inhibition per item
target: UniProtKB O00519; test: Inhibition of human recombinant FAAH expressed in sf21 cells using AMC-AA as substrate at 10 uM preincubated for 15 mins followed by substrate addition measured after 2 hrs by spectrophotometric analysis relative to control
Report the value in % with no unit label.

STRUCTURE_SMILES | inhibition (%)
O=C(NC12CC3CC(CC(C3)C1)C2)c1cc(-c2ccc(-c3ccncc3)nc2)on1 | 23
CN1CCN(C(=O)c2ccc(-c3ccc(-c4cc(C(=O)NC56CC7CC(CC(C7)C5)C6)no4)cc3)cc2)CC1 | 23
O=C(NC12CC3CC(CC(C3)C1)C2)c1cc(-c2ccc(-c3ccco3)cc2)on1 | 31
CC(=O)c1cccc(-c2ccc(-c3cc(C(=O)NC45CC6CC(CC(C6)C4)C5)no3)cc2)c1 | 56
O=C(NC12CC3CC(CC(C3)C1)C2)c1cc(-c2ccc(-c3cnc4ccccc4c3)cc2)on1 | 22
CN1CCN(Cc2cccc(-c3ccc(-c4cc(C(=O)NC56CC7CC(CC(C7)C5)C6)no4)cc3)c2)CC1 | 63
O=C(NC12CC3CC(CC(C3)C1)C2)c1cc(-c2ccc(-c3ccc4c(c3)OCO4)cc2)on1 | 18
COc1ccc(-c2ccc(-c3cc(C(=O)NC45CC6CC(CC(C6)C4)C5)no3)cc2)cc1OC | 14
CC(=O)c1ccc(-c2ccc(-c3cc(C(=O)NC45CC6CC(CC(C6)C4)C5)no3)cn2)cc1 | 13

Request: # return recorded inhibition for entry COc1cc(-c2ccc(-c3cc(C(=O)NC45CC6CC(CC(C6)C4)C5)no3)cc2)cc(OC)c1OC
Response: 42

* * *

// reported inhibition per item
biological target: UniProtKB O00519; assay: Inhibition of human recombinant FAAH expressed in sf21 cells using AMC-AA as substrate at 10 uM preincubated for 15 mins followed by substrate addition measured after 2 hrs by spectrophotometric analysis relative to control
Report the value in % with no unit label.

STRUCTURE_SMILES | TARGET_OR_SYSTEM | inhibition (%)
COc1ccccc1-c1ccc(-c2cc(C(=O)NC34CC5CC(CC(C5)C3)C4)no2)cc1 | UniProtKB O00519 | 47

Request: # return recorded inhibition for entry NC(=O)c1ccc(-c2ccc(-c3cc(C(=O)NC45CC6CC(CC(C6)C4)C5)no3)cc2)cc1
Response: 10

* * *

biological target: Fatty-acid amide hydrolase 1 (Homo sapiens) (UniProt O00519); assay: Inhibition of human recombinant FAAH expressed in sf21 cells using AMC-AA as substrate at 10 uM preincubated for 15 mins followed by substrate addition measured after 2 hrs by spectrophotometric analysis relative to control
Sequence (O00519 whole entry): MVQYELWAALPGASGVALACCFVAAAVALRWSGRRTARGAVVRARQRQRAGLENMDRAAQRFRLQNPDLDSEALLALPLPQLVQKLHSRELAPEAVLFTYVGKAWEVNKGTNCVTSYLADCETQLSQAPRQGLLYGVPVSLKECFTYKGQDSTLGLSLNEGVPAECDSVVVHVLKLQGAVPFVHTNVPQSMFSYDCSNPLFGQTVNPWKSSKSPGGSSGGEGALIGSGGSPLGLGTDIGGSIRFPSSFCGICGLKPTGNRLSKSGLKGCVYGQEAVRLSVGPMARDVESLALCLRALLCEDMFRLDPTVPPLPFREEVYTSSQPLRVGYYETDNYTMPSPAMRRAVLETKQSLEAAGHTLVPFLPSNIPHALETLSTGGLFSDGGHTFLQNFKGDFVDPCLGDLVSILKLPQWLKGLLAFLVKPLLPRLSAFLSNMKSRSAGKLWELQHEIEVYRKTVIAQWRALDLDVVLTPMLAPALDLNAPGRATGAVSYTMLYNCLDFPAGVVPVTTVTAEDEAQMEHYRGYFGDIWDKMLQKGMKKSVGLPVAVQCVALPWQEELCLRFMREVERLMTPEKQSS
MEASURED_PARAMETER: inhibition (%)
Report the value in % with no unit label.

STRUCTURE_SMILES | UNITS_TEXT | READOUT_NUMBER
CCCCCOc1ccc(-c2cc(C(=O)NC34CC5CC(CC(C5)C3)C4)no2)cc1 | % | 79

Request: Please indicate recorded inhibition of N#Cc1cccc(-c2ccc(-c3cc(C(=O)NC45CC6CC(CC(C6)C4)C5)no3)cc2)c1 measured with Fatty-acid amide hydrolase 1 (Homo sapiens) (UniProt O00519).
Response: 64

Request: Please indicate recorded inhibition of O=C(NC12CC3CC(CC(C3)C1)C2)c1cc(-c2ccc(-c3ccc(C(=O)N4CCOCC4)cc3)cc2)on1 measured with Fatty-acid amide hydrolase 1 (Homo sapiens) (UniProt O00519).
Response: 24

Request: Please indicate recorded inhibition of COc1cccc(-c2ccc(-c3cc(C(=O)NC45CC6CC(CC(C6)C4)C5)no3)cc2)c1 measured with Fatty-acid amide hydrolase 1 (Homo sapiens) (UniProt O00519).
Response: 58

Request: Please indicate recorded inhibition of CN1CCN(Cc2ccc(-c3ccc(-c4cc(C(=O)NC56CC7CC(CC(C7)C5)C6)no4)cc3)cc2)CC1 measured with Fatty-acid amide hydrolase 1 (Homo sapiens) (UniProt O00519).
Response: 41
